Target: human emopamil binding protein and human 7-dehydrocholesterol reductase co-expressing cells (hEBP-DHCR7 membrane) (Homo sapiens (Human), UniProt Q15125)
pKi: −log10 of the molar value.
experimental_readout: pKi

compound="O=S1(=O)CC2(CCN([C@H]3CC[C@H](c4ccc(C(F)F)nc4)CC3)C2)C1 [Compound 67]" result_number=6.74

(A) O=S1(=O)CC2(CCN([C@H]3CCC[C@H](c4ccc(C(F)(F)F)nc4)C3)CC2)C1 (single isomer, unassigned) [56B*]
(B) O=S1(=O)CC2(CCN(C3CCN(c4ccc(C(F)(F)F)cn4)CC3)C2)C1 [Compound 6]
(C) Cc1cc(C(F)(F)F)ncc1[C@H]1CC[C@H](N2CCC3(C2)CS(=O)(=O)C3)CC1 [Compound 21B]
input: Order the entries by their reported pKi, beginning at the minimum. # answer = labels listed in requested order
output: A, C, B

---

Target: human EBP (Homo sapiens (Human), UniProt Q15125)
Sequence (Q15125 whole entry): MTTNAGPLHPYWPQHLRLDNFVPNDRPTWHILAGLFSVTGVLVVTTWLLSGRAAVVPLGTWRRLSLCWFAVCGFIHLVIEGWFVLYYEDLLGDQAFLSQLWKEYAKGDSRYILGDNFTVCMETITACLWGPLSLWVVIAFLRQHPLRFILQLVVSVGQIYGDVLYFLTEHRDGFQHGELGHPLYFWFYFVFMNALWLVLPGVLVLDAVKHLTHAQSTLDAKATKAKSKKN
Experiment: Competition binding assay (SPA, [3H]-Ifenprodil) to determine compound affinity to EBP
Details: [3H]-Ifenprodil 10 nM, HEK293 membrane overexpressing human EBP, Ki=IC50/(1+[L]/Kd); read-out: hEBP SPA Ki
experimental_readout: Ki (nM)

Examples with their reported Ki follow.
compound="CC(C)n1nc(-c2cncc(OC(F)F)c2)cc1[C@H]1CC[C@H](N2CCC3(C2)CS(=O)(=O)C3)CC1 [Compound 33A]" experimental_readout=Ki result_number=37
compound="O=S1(=O)CC2(CCN([C@H]3CC[C@H](c4cc(C(F)(F)F)nn4C4CCC4)CC3)C2)C1 [Compound 23B]" experimental_readout=Ki result_number=21
compound="Cn1nc(C(F)(F)F)cc1[C@H]1CC[C@H](N2CCC[C@@]3(CCS(=O)(=O)C3)C2)CC1 (single isomer, unassigned) [26A*]" experimental_readout=Ki result_number=33
compound=O=S1(=O)CC2(CCN(C3CCN(c4ccc(C(F)(F)F)cn4)CC3)C2)C1 experimental_readout=Ki result_number=37
compound="CC(C)n1nc(-c2cncc(C(F)(F)F)c2)cc1[C@H]1CC[C@H](N2CCC3(C2)CS(=O)(=O)C3)C1 (single isomer, unassigned) [13D*]" experimental_readout=Ki result_number=71

(A) Cn1nc(C(F)(F)F)cc1[C@H]1CC[C@@H](N2CCC3(C2)CS(=O)(=O)C3)CC1
(B) CC(C)n1nc(N2CC(F)(F)C2)cc1[C@H]1CC[C@H](N2CCC3(C2)CS(=O)(=O)C3)CC1
input: A or B : whose Ki is greater? Output the label that corresponds to your choice.
output: B
(B: 180 nM, A: 20 nM)

(P) CC(C)n1nc(-c2cncc(C(F)(F)F)c2)cc1[C@@H]1CC[C@@H](N2CCC3(C2)CS(=O)(=O)C3)C1 (single isomer, unassigned) [13C*]
(Q) O=S1(=O)CC2(CCN([C@H]3CC[C@H](c4ccc(C(F)(F)F)nc4)CC3)C2)C1 [Compound 14A]
input: Hi! Which is lower in terms of Ki, the first one P or the second one Q ? Output the label that corresponds to your choice.
output: P

(1) Cc1cc(C(F)(F)F)cnc1[C@H]1CC[C@@H](N2CCC3(C2)CS(=O)(=O)C3)CC1 [Compound 47A]
(2) CCn1nc([C@H]2CC[C@H](N3CCC4(C3)CS(=O)(=O)C4)CC2)cc1C(F)(F)F
input: 1 or 2 : whose Ki is greater? Output the label that corresponds to your choice.
output: 2

Values compiled from patent US20240398781A1.
